Kindly state MS labeling percentage, Lyo for each of the entries shown.
system: lysozyme (Lyo); experiment: Intact protein MS photoaffinity labeling screen, lysozyme; type: binding; details: intact protein MS after 10 min irradiation
Field note: include the unit after the figure.

[Q] I have this compound here, COc1ccc(OC)c(C(C)NC(=O)CCC2(C)N=N2)c1 (stereo not shown) , and I need its recorded MS labeling percentage, Lyo.
[A] 1%

[Q] I have this compound here, Cc1ccc(C(NC(=O)CCC2(C)N=N2)c2ccccn2)cc1 (stereo not shown) , and I need its recorded MS labeling percentage, Lyo.
[A] 0.4%

[Q] I have this compound here, CCCc1nn(C)c(C(N)=O)c1NC(=O)CCC1(C)N=N1 , and I need its recorded MS labeling percentage, Lyo.
[A] 0%

[Q] I have this compound here, COc1ccc(S(=O)(=O)N2CCC(NC(=O)CCC3(C)N=N3)CC2)cc1 , and I need its recorded MS labeling percentage, Lyo.
[A] 3.7%

* * *

tested on: lysozyme (Lyo); experiment: Intact protein MS photoaffinity labeling screen, lysozyme; assay type: binding; details: intact protein MS after 10 min irradiation
Kindly state MS labeling percentage, Lyo for each of the entries shown.
Field note: include the unit after the figure.

[Q] I have this compound here, CC1(CCC(=O)NC(CO)Cc2c[nH]c3ccccc23)N=N1 (stereo not shown) , and I need its recorded MS labeling percentage, Lyo.
[A] 0.7%

[Q] I have this compound here, CC1(CCC(=O)N[C@@H](Cc2ccc(O)cc2)C(N)=O)N=N1 , and I need its recorded MS labeling percentage, Lyo.
[A] 1.2%

[Q] I have this compound here, CC1(CCC(=O)Nc2ccc3c(c2)NC(=O)CC3)N=N1 , and I need its recorded MS labeling percentage, Lyo.
[A] 0%

[Q] I have this compound here, CCOC(=O)[C@H](NC(=O)CCC1(C)N=N1)c1ccccc1 [PhP005, c1ccccc1[C@H](C(=O)OCC)NC(=O)CCC2(C)N=N2] , and I need its recorded MS labeling percentage, Lyo.
[A] 0%

[Q] I have this compound here, CC(Cc1cccc(OCc2ccccc2)c1)NC(=O)CCC1(C)N=N1 (stereo not shown) , and I need its recorded MS labeling percentage, Lyo.
[A] 0.3%

[Q] I have this compound here, CC1(CCC(=O)NCCCc2nc3ccccc3[nH]2)N=N1 [PhP069, N1=NC1(C)CCC(=O)NCCCc(n2)[nH]c(c23)cccc3] , and I need its recorded MS labeling percentage, Lyo.
[A] 0%

[Q] I have this compound here, Cc1n[nH]c(C)c1CCNC(=O)CCC1(C)N=N1 [PhP061, Cc1n[nH]c(C)c1CCNC(=O)CCC2(C)N=N2] , and I need its recorded MS labeling percentage, Lyo.
[A] 0%

* * *

test system: myoglobin (Myo); assay: Intact protein MS photoaffinity labeling screen, myoglobin; assay type: binding; settings: intact protein MS after 10 min irradiation
MEASURED QUANTITY: MS labeling percentage, Myo (%)
Express your answer in %, writing the number without its unit.

[Q] Lab note: need MS labeling percentage, Myo with myoglobin (Myo) for entry COc1ccc(S(=O)(=O)N2CCC(NC(=O)CCC3(C)N=N3)CC2)cc1 , please look it up.
[A] 19.9

[Q] Lab note: need MS labeling percentage, Myo with myoglobin (Myo) for entry CC1(CCC(=O)NCc2ccc(-c3ccc(O)cc3)cc2)N=N1 , please look it up.
[A] 0.2

[Q] Lab note: need MS labeling percentage, Myo with myoglobin (Myo) for entry Cn1cnc(CCNC(=O)CCC2(C)N=N2)c1 , please look it up.
[A] 0.1

[Q] Lab note: need MS labeling percentage, Myo with myoglobin (Myo) for entry COc1ccc(-c2cnc(CNC(=O)CCC3(C)N=N3)[nH]2)cc1 , please look it up.
[A] 2.3

[Q] Lab note: need MS labeling percentage, Myo with myoglobin (Myo) for entry CC1(CCC(=O)NC2CCc3nccn3C2)N=N1 (centres unmarked) , please look it up.
[A] 0

Values from paper PMC11292009
